assay: yeast display, Sf9 membrane polyspecificity reagent, FACS + sequencing; frameworks hold sequencing errors
measurement_label: polyreactivity (PSR sort gate)

# annotated cases, reported polyreactivity (PSR sort gate) shown
QVQLVESGGGLVQAGGSLRLSCAASGSIFNPYAMGWYRQAPGKQRELVAAISYTGGRTYYADSVKGRFTISRDNAQNTVYLQMNSLKPEDTAVYYCIADYIYSFYWSFYEYDYWGQGTQVTVSS | high polyreactivity
QVQLVESGGGLVQAGGSLRLSCAASGFTFWGNAMGWYRQAPGKERELVAAISRSGGRTYYADSVKGRFTISRDNAKNTVYLQMNSLKPEDTAVYYCAAGSSHHFDYEGGYWGQGTQVTVSS | low polyreactivity
QVQLVESGGCLVQAGGSLRLSCASSGRTFLVYAMGWYRQAPGKERELVAAITSGGSTYYADSVKGRFTISRDNAKNTVYLQMNSLKPEDTAVYYCAAKIRGYPRRRYDYWGQGTQVTVSS | high polyreactivity
QVQLVESGGGLVQAGGSLRLSCAASGRIFGNTAMGWYRQAPGKERELVAAIRSRGTRTYYADSVKGRFTISRDNAKNTVYLQMNSLKPEDTAVYYCATTSLTGRYDRYDYWGQGTQVTVSS | high polyreactivity

Now let's try a different one.
`QVQLVESGGGLVQAGGSLRLSCAASGYTFPLYAMGWYRQAPGTERELVADINIGGASTYYADSVKGRFTISRDNAKNTVYLQMNSLKPEDTAVYYCAADYTVRVVATYDYWGQGTQVTVSS` has a reported polyreactivity (PSR sort gate) of low polyreactivity

Reference source: the nanobody polyreactivity screen of Harvey et al. (2022)
